# measurement.description: Vapor pressure of fragrance ingredients
# Vapor Pressure listing for each entry below
Could you give me the number in mm hg? Just the number is fine.

Solved entries:
>>> numeric_result("COc1cc(C=O)ccc1O [Vanillin]")
0.002
>>> numeric_result("CC(=O)C1(C)CC2=C(CCCC2(C)C)CC1C (stereo not drawn) [Iso E Super]")
0.001

The compound listed as CCOC(=O)CC1(C)OCCO1 [Fructone] has a reported Vapor Pressure of 0.219

The compound listed as C=CCCCCCCCCC=O [Aldehyde C-11 Undecylenic] has a reported Vapor Pressure of 0.039

The compound listed as CC(=O)OCc1ccccc1 [Benzyl Acetate] has a reported Vapor Pressure of 0.177

The compound listed as CC1COCc2cc3c(cc21)C(C)(C)C(C)C3(C)C (stereo not drawn) [Galaxolide] has a reported Vapor Pressure of 0.000414

====

# measurement.description: Flash point of fragrance ingredients
# Format: physicochemical
value.kind: Flash Point (°C)
Could you give me the number in °C? Just the number is fine.

>>> numeric_result("CC(=O)C1=C(C)C2CC3(C1)C(C)CCC3C2(C)C (stereo not drawn)")
100

The compound listed as `CCOC(=O)CC1(C)OCCO1` has a reported Flash Point of 93

The compound listed as `COc1cc(C=O)ccc1O` has a reported Flash Point of 153

====

# measurement.description: Vapor pressure of fragrance ingredients
value.kind: Vapor Pressure (mm hg)
Could you give me the number in mm hg? Just the number is fine.

>>> numeric_result("CC(=O)OCCC(C)C [Isoamyl Acetate]")
5.6
>>> numeric_result("N#C/C=C/c1ccccc1")
0.023
>>> numeric_result("CCCc1ccc(O)c(OC)c1 [Dihydro Eugenol]")
0.006
>>> numeric_result("c1ccc(COCc2ccccc2)cc1")
0.00103

For the next question, use this compound.
The compound listed as C=CC(C)CCCC(C)(C)O (centres unmarked) [Dihydro Myrcenol] has a reported Vapor Pressure of 0.166

====

# measurement.description: Flash point of fragrance ingredients
# Type: physicochemical
# Flash Point listing for each entry below
Could you give me the number in °C? Just the number is fine.

>>> numeric_result("CC1(C)CCC[C@]2(C)[C@H]3CCO[C@]3(C)CC[C@@H]12 [Ambrox Super (Ambroxan), Ambroxan]")
100

The compound listed as CC(C)=CCCC(C)=CC=O [Citral] has a reported Flash Point of 98

The compound listed as CCCCCCCCCCCC=O [Aldehyde C-12 Lauric] has a reported Flash Point of 116

The compound listed as CC1COCc2cc3c(cc21)C(C)(C)C(C)C3(C)C (centres unmarked) [Galaxolide] has a reported Flash Point of 104

The compound listed as N#C/C=C/c1ccccc1 [Cinnamalva] has a reported Flash Point of 94

====

# measurement.description: physchem
# experimental.conditions: 25 °C, water
value.kind: solubility

The compound listed as C=C(C)[C@@H]1CCC2=CC(=O)C[C@@H](C)[C@]2(C)C1 [Nootkatone] has a reported solubility of 2.38 µg/mL

The compound listed as C=CC(C)(CCC=C(C)C)OC(C)=O (stereo not drawn) [Linalyl Acetate] has a reported solubility of 20.1 µg/mL

The compound listed as CC1COCc2cc3c(cc21)C(C)(C)C(C)C3(C)C (stereo not drawn) [Galaxolide] has a reported solubility of 0.194 µg/mL

====

# measurement.description: Water solubility at 25° C. of fragrance ingredients
# experimental.conditions: 25° C.
# Water Solubility listing for each entry below
Could you give me the number in µg/mL? Just the number is fine.

>>> numeric_result("CC1C(C)(C)C2=C(C(=O)CCC2)C1(C)C (centres unmarked) [Cashmeran]")
5.937
>>> numeric_result("C=CCCCCCCCCC=O [Aldehyde C-11 Undecylenic]")
30.000
>>> numeric_result("COc1ccc(COC(C)=O)cc1 [Anisyl Acetate]")
782.900
>>> numeric_result("CC(=O)OC(C)(C)C1CC=C(C)CC1 (centres unmarked) [Terpinyl Acetate]")
18.970
>>> numeric_result("CCCCCCCCCC=O [Aldehyde C-10]")
43.520

The molecule listed as CC(C)CCCC(C)(C)O [Dimetol] has a reported Water Solubility of 777.000

The molecule listed as CCCCCC1C(=O)CCC1CC(=O)OC (centres unmarked) [Hedione] has a reported Water Solubility of 91.720

The molecule listed as CCCCCCCCCC(C)C=O (centres unmarked) [Aldehyde C-12 MNA] has a reported Water Solubility of 5.372

The molecule listed as CCCCCCCCCCCC=O [Aldehyde C-12 Lauric] has a reported Water Solubility of 4.649

The molecule listed as CCOC(=O)CC1(C)OCCO1 [Fructone] has a reported Water Solubility of 100.000

The molecule listed as CC/C(=C\CC1CC=C(C)C1(C)C)CO (centres unmarked) [Bacdanol] has a reported Water Solubility of 17.000

The molecule listed as C=CC(C)CCCC(C)(C)O (centres unmarked) [Dihydro Myrcenol] has a reported Water Solubility of 252.200

The molecule listed as CC1CC=CCCCCCCCCCC(=O)C1 (centres unmarked) [Muscenone] has a reported Water Solubility of 0.346

====

# measurement.description: physchem
# if value of Water Solubility reaches 0.3 mg/mL, tag t; if it stays below, tag f

# count of solved cases: 3
>>> category("CC1(O)CCC2C(=CCCC2(C)C)C1 (stereo not shown)")
"f"
>>> category("COc1ccc(C=O)cc1")
"t"
>>> category("N#C/C=C/c1ccccc1")
"t"

Has `CCOc1cc(C=O)ccc1O` a recorded Water Solubility greater than or equal to 0.3 mg/mL? t

Has `O=Cc1ccc2c(c1)OCO2` a recorded Water Solubility greater than or equal to 0.3 mg/mL? t

Has CC1=CC(C)C(C=O)CC1 (stereo not shown) a recorded Water Solubility greater than or equal to 0.3 mg/mL? t

Has CC(=O)C(C)=CC1C(C)=CCCC1(C)C (stereo not shown) a recorded Water Solubility greater than or equal to 0.3 mg/mL? f

====

# measurement.description: Flash point of fragrance ingredients
# Assay type: physicochemical
value.kind: Flash Point (°C)
Could you give me the number in °C? Just the number is fine.

>>> numeric_result("CC12CCC(CC1)C(C)(C)O2 [Eucalyptol]")
50

The compound listed as C=C(C)[C@@H]1CCC2=CC(=O)C[C@@H](C)[C@]2(C)C1 [Nootkatone] has a reported Flash Point of 110

The compound listed as O=C1CCCCCCCCCCCC(=O)OCCO1 [Ethylene Brassylate] has a reported Flash Point of 110

The compound listed as CC1(O)CCC2C(=CCCC2(C)C)C1 (centres unmarked) [Ambrinol] has a reported Flash Point of 100

The compound listed as CCC(CC)C(=O)N(C)c1cccc(C)c1 [Paradisamide] has a reported Flash Point of 138

The compound listed as CC/C(=C\CC1CC=C(C)C1(C)C)CO (centres unmarked) [Bacdanol] has a reported Flash Point of 199

The compound listed as CC(=O)C1(C)CC2=C(CCCC2(C)C)CC1C (centres unmarked) [Iso E Super] has a reported Flash Point of 111

====

# measurement.description: physchem
# logP listing for each entry below

Solved entries:
>>> result("CC(C)CCCC(C)(C)O [Dimetol]")
2.976
>>> result("CC(=O)C1=C(C)C2CC3(C1)C(C)CCC3C2(C)C (stereo not shown) [Vertofix Coeur]")
5.6
>>> result("C=CCCCCCCCCC=O [Aldehyde C-11 Undecylenic]")
4.072
>>> result("CCC(CC)C(=O)N(C)c1cccc(C)c1 [Paradisamide]")
3.295
>>> result("CCCCCCCCCC(C)C=O (stereo not shown) [Aldehyde C-12 MNA]")
4.834
>>> result("C=CC(C)(CCC=C(C)C)OC(C)=O (stereo not shown) [Linalyl Acetate]")
3.93

The molecule listed as COc1ccc(COC(C)=O)cc1 [Anisyl Acetate] has a reported logP of 1.887

====

# measurement.description: Clarity of fragrance ingredient in bioderived 1,3-BG by visual observation
# experimental.conditions: 10% ingredient in bioderived 1,3-BG; clear, slightly haze, cloudy, particles, or separation
value.kind: Clarity 10%

>>> result("CC(=O)OCc1ccccc1 [Benzyl Acetate]")
"Clear"
>>> result("CC/C(=C\\CC1CC=C(C)C1(C)C)CO (stereo not drawn)")
"Clear"
>>> result("CCOc1cc(C=O)ccc1O")
"Clear"
>>> result("CCOC(=O)CC1(C)OCCO1")
"Clear"
>>> result("CC(=O)C(C)=CC1C(C)=CCCC1(C)C (stereo not drawn)")
"Cloudy"
>>> result("CC(=O)C1=C(C)C2CC3(C1)C(C)CCC3C2(C)C (stereo not drawn)")
"Cloudy"
>>> result("CC(C)=CCCC(C)=CC=O")
"Clear"
>>> result("COc1ccc(C=O)cc1")
"Clear"

For the next question, use this compound.
The compound listed as `CC=Cc1ccc(OC)cc1` has a reported Clarity 10% of Cloudy
